Exercise: state measured pIC50 for each of the compounds provided.
By convention, pIC50 is the negative base-10 log of a molar concentration.

# get_value(readout= pIC50, system= human Gal-3 (hGal-3) (Homo sapiens (Human), UniProt P17931)) for COc1ccc(-c2cc(C[C@H]3O[C@H](CO)[C@H](O)[C@H](n4cc(-c5cc(F)c(F)c(F)c5)nn4)[C@H]3O)on2)cc1 [Example 2.01]
6.08

# get_value(readout= pIC50, system= human Gal-3 (hGal-3) (Homo sapiens (Human), UniProt P17931)) for CCN(C)C(=O)N1CCC(c2cc(C[C@H]3O[C@H](CO)[C@H](O)[C@H](n4cc(-c5cc(F)c(F)c(F)c5)nn4)[C@H]3OC)no2)CC1 [Example 3.68]
6.96

Item CO[C@@H]1[C@@H](n2cc(-c3cc(F)c(F)c(F)c3)nn2)[C@@H](O)[C@@H](CO)O[C@@H]1C[C@@H]1CN(C2CCN([S@+]([O-])C(C)(C)C)CC2)C(=O)O1 (mixture of isomers) [Example 5.21] with human Gal-3 (hGal-3) (Homo sapiens (Human), UniProt P17931) - pIC50?
6.46

Which pIC50 is reported with human Gal-3 (hGal-3) (Homo sapiens (Human), UniProt P17931) for this entry: CO[C@@H]1[C@@H](n2cc(-c3ccc(C)c(F)c3F)nn2)[C@@H](O)[C@@H](CO)O[C@@H]1Cc1cc(C(C)(C)CO)no1 [Ex 1.257] ?
7.36

Give the reported pIC50 for CO[C@@H]1[C@@H](n2cc(-c3cc(F)c(F)c(F)c3)nn2)[C@@H](O)[C@@H](CO)O[C@@H]1Cn1cc(C2CCN(C(=O)OCc3ccccc3)CC2)nn1 [Example 4.20] (system: human Gal-3 (hGal-3) (Homo sapiens (Human), UniProt P17931)).
Sequence (P17931 whole entry): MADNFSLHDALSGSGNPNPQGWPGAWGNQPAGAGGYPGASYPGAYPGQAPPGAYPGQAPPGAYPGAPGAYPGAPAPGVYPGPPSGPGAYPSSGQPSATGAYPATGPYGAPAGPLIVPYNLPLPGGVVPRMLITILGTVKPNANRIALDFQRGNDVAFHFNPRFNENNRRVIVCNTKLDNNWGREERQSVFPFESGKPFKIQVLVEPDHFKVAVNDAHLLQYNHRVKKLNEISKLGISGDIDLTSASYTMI
7.68

Record lookup: for human Gal-3 (hGal-3) (Homo sapiens (Human), UniProt P17931), what pIC50 belongs to CO[C@@H]1[C@@H](n2cc(-c3ccc(Br)c(F)c3F)nn2)[C@@H](O)[C@@H](CO)O[C@@H]1Cc1cc(C(C)(C)C)on1 [Ex 1.191] ?
6.82

Recall the recorded pIC50 for CO[C@@H]1[C@@H](n2cc(-c3ccc(Cl)c(F)c3)nn2)[C@@H](O)[C@@H](CO)O[C@@H]1Cc1cc(C2CCOCC2)on1 [Ex 1.183] with human Gal-3 (hGal-3) (Homo sapiens (Human), UniProt P17931) and state it.
6.55

Quick check: pIC50 on human Gal-3 (hGal-3) (Homo sapiens (Human), UniProt P17931), item CO[C@@H]1[C@@H](n2cc(-c3ccc(C)c(F)c3F)nn2)[C@@H](O)[C@@H](CO)O[C@@H]1Cc1cc(-c2ccc(F)c(F)c2F)on1 [Ex 1.229] ?
6.28

Please tell me: pIC50 of CO[C@@H]1[C@@H](n2cc(-c3ccc(F)c(F)c3F)nn2)[C@@H](O)[C@@H](CO)O[C@@H]1Cc1cc(C(C)(C)C)on1 [Ex 1.193] , system human Gal-3 (hGal-3) (Homo sapiens (Human), UniProt P17931)?
6.92

# value lookup — system human Gal-3 (hGal-3) (Homo sapiens (Human), UniProt P17931), readout pIC50, item CO[C@@H]1[C@@H](n2cc(-c3cc(F)c(F)c(F)c3)nn2)[C@@H](O)[C@@H](CO)O[C@@H]1CC1CN(C2CCN(C(C)=O)CC2)C(=O)O1 (mixture of isomers) [Example 5.03]
6.92

Tell me reported pIC50 for CO[C@@H]1[C@@H](n2cc(-c3cc(F)c(F)c(F)c3)nn2)[C@@H](O)[C@@H](CO)O[C@@H]1Cc1cc(C2CCN([S+]([O-])C(C)(C)C)CC2)on1 (mixture of isomers) [Example 3.55] , tested with human Gal-3 (hGal-3) (Homo sapiens (Human), UniProt P17931).
7.05
